Experiment: Plasma protein binding, equilibrium dialysis
Type: in vitro ADME
Conditions: beagle, dog, 25 μM, read-out: % Free in plasma

Compound	fraction unbound at 25 μM
C=CC(=O)N[C@H]1CCC[C@H]1NC(=O)c1sc2nccc3c2c1NC(=O)N3c1cnc(CC(C)C)cc1C (atropisomer, axis not shown)	0.0685

###

Assay: Preclinical PK, oral and IV
Type: in vivo, monkey
Details: monkey, in vivo; oral
Readout Kind: Cmax (ng/mL)

Compound	Readout Kind	Readout Unit	Result Number
C=CC(=O)N[C@H]1CCC[C@H]1NC(=O)c1sc2nccc3c2c1NC(=O)N3c1cnc(CC(C)C)cc1C (atropisomer, axis not shown) [compound of Formula (III)]	Cmax	ng/mL	1010
